test system: TK-10 renal; test: NCI tumour cell line growth inhibition, 48 h
Exercise: state measured TGI for each of the compounds provided.
Respond with the bare value in µM.

input: I have this compound here, CNCCCNc1c2ccccc2nc2cccc([N+](=O)[O-])c12 , and I need its recorded TGI.
output: 0.0327

input: Same lookup for C=C1C(=O)O[C@H]2[C@H]1CC/C(COC(=O)NCCc1cccc(OC)c1)=C\CC[C@@]1(C)O[C@@H]21 , please.
output: 3.25

input: Same lookup for O=C(C1OC1c1cccc([N+](=O)[O-])c1)C12CC3CC(CC(C3)C1)C2 (centres undefined) , please.
output: 32.7

input: Same lookup for CC1=C(C(=O)Nc2ccccc2)C(c2cc(Cl)cc(Cl)c2)C(C(=O)Nc2ccccc2)=C(C)N1 , please.
output: 33.6

input: Same lookup for CCOc1cc(-c2nc3cc(F)ccc3s2)ccc1O , please.
output: 34

input: Same lookup for CN1CCN(CCCOc2cccc3nc(Nc4ccc(F)c(F)c4)ccc23)CC1 , please.
output: 6.94

input: Same lookup for COC[C@H]1C(=O)NCC(=O)N2N=CCC[C@H]2C(=O)N(O)[C@H](C)C(=O)O[C@@H](C(C)C)[C@H](NC(=O)[C@@](C)(O)[C@]2(O)CC[C@@H](CC(C)C)[C@H](C)O2)C(=O)N2NCCC[C@@H]2C(=O)N1O , please.
output: 0.0322

input: Same lookup for CC[n+]1c(/C=C/c2ccc(N(CCCl)CCCl)cc2)ccc2cc(I)ccc21 , please.
output: 9.04

input: Same lookup for Cc1c(C)c2c(c(C)c1OCC(=O)O)CC[C@@](C)(CCC[C@@H](C)CCC[C@@H](C)CCCC(C)C)O2 , please.
output: 154

input: Same lookup for C=CC[C@]1(C2=NC(C)(C)CO2)c2ccccc2-c2ccccc2[C@H]1C(C)=O , please.
output: 34.4

input: Same lookup for CC12OC(C(=O)C13CCC3)C1C(=O)c3ccc4c(ccc5ccccc54)c3C(=O)C12 (centres undefined) , please.
output: 15

###

system: HCT-15 colon; assay: NCI tumour cell line growth inhibition, 48 h
Exercise: state measured GI50 for each of the compounds provided.

input: I have this compound here, CCOc1ccc(C(C)=O)cc1NC(=O)c1cccc(-c2nnn(CC)n2)c1 , and I need its recorded GI50.
output: 419 nM

input: Same lookup for CCOC(=O)C#Cc1c(C(=O)OCC)nnn1[C@@H]1O[C@H](CO)[C@H]2OC3(CCCCC3)O[C@H]21 , please.
output: 1870 nM

input: Same lookup for C[C@H](NC(=O)c1c(C(F)F)nn(C)c1Oc1cccc(C(F)(F)F)c1)c1ccc(C(=O)O)cc1 , please.
output: > 100000 nM

input: Same lookup for c1cc[c]([Sn]([O]c2cccc3cccnc23)([O]c2cccc3cccnc23)[c]2ccccc2)cc1 , please.
output: 186 nM

input: Same lookup for COc1ccc(-c2nc(N)c(C#N)c3c2CCOc2c-3ccc3ccccc23)cc1 , please.
output: 59400 nM

input: Same lookup for CC1=C(C#N)C(/C=C(\Cl)c2ccc(F)cc2)C(C#N)=C(C)N1 , please.
output: > 100000 nM

input: Same lookup for COc1ccc2nc3cccc([N+](=O)[O-])c3c(NCCNCCN(C)C)c2c1 , please.
output: 131 nM

input: Same lookup for Cn1cc(C2=C(c3ccccc3C(F)(F)F)C(=O)NC2=O)c2ccccc21 , please.
output: 9590 nM

input: Same lookup for CCc1nc2cc(/C=C/C(=O)NO)ccc2c(=O)n1CCc1ccc(OC)cc1 , please.
output: 3240 nM

###

tested on: SK-MEL-28 melanoma; assay: NCI tumour cell line growth inhibition, 48 h
OBSERVATION_TYPE: TGI (µM)
Respond with the bare value in µM.

input: I have this compound here, CCCCCCCCCC(=O)NC(Cc1ccc(O)cc1)C(=O)NCCCNCCCCNCCCNC(=O)[C@@H](N)CCCN=C(N)N (stereo not given in full) , and I need its recorded TGI.
output: 43.8

input: Same lookup for O=P1(Cc2ccccc2)c2ccccc2-c2ccccc21 , please.
output: 24.6

###

tested on: HCT-15 colon; test: NCI tumour cell line growth inhibition, 48 h
Exercise: state measured GI50 for each of the molecules provided.

input: I have this molecule here, COc1cc(CN(c2ccc(C)cc2)C2OC(=O)c3ccccc32)cc(OC)c1OC (stereo not drawn) , and I need its recorded GI50.
output: 568 nM

input: Same lookup for Cc1noc(C)c1-c1cnc2c(-c3ccc(C(=O)O)cc3)cn([C@@H](C)c3ccccn3)c2c1 , please.
output: 418 nM

input: Same lookup for C=C(CN1c2ccccc2Sc2ccccc21)c1ccc(C(=O)Nc2ccccc2N)cc1 , please.
output: > 42500 nM

###

tested on: NCI-H522 lung; assay: NCI tumour cell line growth inhibition, 48 h
OBSERVATION_TYPE: TGI (µM)
Respond with the bare value in µM.

input: I have this molecule here, CCOC(=O)C1=C(C(=O)OCC)C2(c3ccccc3)N(O1)c1ccccc1C2(C)C (stereo not given) , and I need its recorded TGI.
output: 63.8

input: Same lookup for COc1cc(S(=O)(=O)Nc2ccc(-c3csc(N4C(=O)C(Cl)C4c4cccs4)n3)cc2)ccc1Cl (stereo not given) , please.
output: 30.6

input: Same lookup for [N-]=[N+]=Nc1ccc2c(c1)Sc1ccccc1N2CCCCN1CCN(C(=O)CCNC(=O)Cc2ccc(C(=O)c3ccccc3)cc2)CC1 , please.
output: 7.51

input: Same lookup for CCC[CH2][Sn]([CH2]CCC)([O]C(=O)c1cccc(F)c1F)[O]C(=O)c1cccc(F)c1F , please.
output: 0.277

###

test system: NCI-H23 lung; assay: NCI tumour cell line growth inhibition, 48 h
OBSERVATION_TYPE: TGI

input: I have this molecule here, COC[C@H]1C(=O)NCC(=O)N2N=CCC[C@H]2C(=O)N(O)[C@H](C)C(=O)O[C@@H](C(C)C)[C@H](NC(=O)[C@@](C)(O)[C@]2(O)CC[C@@H](CC(C)C)[C@H](C)O2)C(=O)N2NCCC[C@@H]2C(=O)N1O , and I need its recorded TGI.
output: 0.0312 µM

input: Same lookup for CC(=O)NC1(C)C(C)C2CC1C(C)C2(C)C (centres undefined) , please.
output: > 100 µM

input: Same lookup for O=C(NCc1ccc2ccc3cccnc3c2n1)c1ccc[n+](Cc2ccccc2)c1 , please.
output: > 100 µM

input: Same lookup for O=C1C(Cl)=C(NCCF)C(=O)c2ncccc21 , please.
output: 3.51 µM

input: Same lookup for OC12c3ccccc3C1CCCCCC21OCCCO1 (centres undefined) , please.
output: > 100 µM

input: Same lookup for C=CCn1c(=N)/c(=C(\N)O)s/c1=C1/SC(=S)N(c2ccc(C)cc2)C1=O , please.
output: > 100 µM

input: Same lookup for CC[n+]1c(/C=C/c2ccc(N(CCCl)CCCl)cc2)ccc2cc(I)ccc21 , please.
output: 23.5 µM

input: Same lookup for Cc1noc(C)c1-c1cnc2c(-c3ccc(C(=O)O)cc3)cn([C@@H](C)c3ccccn3)c2c1 , please.
output: > 100 µM

input: Same lookup for Cc1cc2nnc(C(N)=O)c(N)c2cc1C , please.
output: > 100 µM

###

tested on: OVCAR-3 ovarian; experiment: NCI tumour cell line growth inhibition, 48 h; in the data active = GI50 below about 0.43 µM; inactive = the rest
Mark one answer only. Choices: TRUE = active, FALSE = inactive

input: Status in this test for Cn1cncc1-c1c(F)cncc1NC(=O)c1c(N)nn2cc(F)cnc12 ?
output: TRUE

input: Same lookup for CN1CCN(CCCOc2cccc3nc(Nc4ccc(F)c(F)c4)ccc23)CC1 , please.
output: FALSE

input: Same lookup for CCC[CH2][Sn]([CH2]CCC)([O]C(=O)c1cccc(F)c1F)[O]C(=O)c1cccc(F)c1F , please.
output: FALSE

input: Same lookup for Cc1ccc(O)c(NC2=C(Cl)C(=O)N(Cc3ccccc3)C2=O)c1 , please.
output: FALSE

input: Same lookup for COc1ccc(-c2nsc3c2NC(=O)CC3c2cccc(Cl)c2)cc1 (stereo not drawn) , please.
output: FALSE

input: Same lookup for O=C(Oc1ccccc1)C(Br)C(Br)c1ccccc1 (stereo not drawn) , please.
output: FALSE

input: Same lookup for CC(=O)O[C@H](C[C@H](C(C)C)N(C)C(=O)[C@@H](NC(=O)[C@H]1CCCCN1C)C(C)C)c1cccc(C(=O)N[C@@H](Cc2ccccc2)C[C@H](C)C(=O)O)n1 , please.
output: TRUE

input: Same lookup for COc1ccc2[nH]c(C(=O)OCc3ccc4cccc(O)c4n3)cc2c1 , please.
output: FALSE

input: Same lookup for O=C(CN(/C=C/C(=O)C(F)(F)F)c1ccccc1)c1ccc(Cl)cc1 , please.
output: FALSE

input: Same lookup for CCc1nn2ncccc2c1-c1ccnc(NC2CC2)n1 , please.
output: FALSE

input: Same lookup for CC/C(Cc1ccccc1)=C(/c1ccc(O)cc1)c1ccc(OCCN2CCCC2)cc1 , please.
output: FALSE

input: Same lookup for O=C(/C=C\n1cnc(-c2cc(C(F)(F)F)cc(C(F)(F)F)c2)n1)N1CC(F)(F)C1 , please.
output: TRUE

input: Same lookup for Cc1cn2c(/C=N/N=C(N)N)c(-c3ccncc3)nc2s1 , please.
output: FALSE
